- assay: Nasal airway pressure (decongestant activity) in normal and histamine-challenged rats
- Assay type: in vivo, Sprague Dawley rats
- measurement_conditions: 10% of the dose that increased canine resting mean arterial pressure 10%; rats, mean ± standard error
parameter: Mean Decrease in Nasal Airway Pressure
Reply with the value as a number alone.

Example cases with answers are listed next.
{"columns": ["compound", "Mean Decrease in Nasal Airway Pressure"],
 "data": [
  ["CNC[C@H](O)c1cccc(O)c1 [(-)-phenylephrine]", -4.8],
  ["CN[C@@H](C)[C@H](O)c1ccccc1 [(-)-ephedrine]", -2.5]
]}

*Q* Identify measured Mean Decrease in Nasal Airway Pressure corresponding to CN[C@@H](C)[C@@H](O)c1ccccc1 [(+)-pseudoephedrine]
*A* -6.8

*Q* Given CN[C@H](C)[C@@H](O)c1ccccc1 [(+)-ephedrine] , respond with its Mean Decrease in Nasal Airway Pressure.
*A* 3.0
